Tested on: Wolbachia pipientis
TEST_DESCRIPTION: Anti-Wolbachia Cell-Based Screen
Type: functional
Parameters: scale not given: in the data most compounds retested in dose-response had high values
EXPERIMENTAL_PARAMETERS: 5 µM
The whole screen tested about 48,000 compounds, of which about 13,000 (27%) showed an effect of 50% or more. This is one part of the list.
REPORTED_PROPERTY: Percent Effect

MOLECULE: CC(C)c1cc(C(=O)NCc2nc(-c3ccc(F)cc3)n[nH]2)n[nH]1
REPORTED_PROPERTY: Percent Effect
RESULT: 8.194%
//
MOLECULE: Cc1ccc(O[C@@H]2C[C@H]3CN(Cc4nccn4C)CCN3C2)cc1.O=C(O)C(F)(F)F.O=C(O)C(F)(F)F
REPORTED_PROPERTY: Percent Effect
RESULT: -3.373%
//
MOLECULE: COCc1nn(Cc2ccc(Cl)s2)c(=O)o1
REPORTED_PROPERTY: Percent Effect
RESULT: 85.2%
//
MOLECULE: CS(=O)(=O)c1ccc(C(=O)NCc2nc3cc(F)ccc3[nH]2)cc1
REPORTED_PROPERTY: Percent Effect
RESULT: 97.05%
//
MOLECULE: CNC(=O)CN(C)C(=O)Cc1csc(C(C)C)n1
REPORTED_PROPERTY: Percent Effect
RESULT: -0.57%
//
MOLECULE: Cc1ccc(CN(C)Cc2cc(C3CC3)[nH]n2)c(O)n1
REPORTED_PROPERTY: Percent Effect
RESULT: 7.171%
//
MOLECULE: CCN(C)c1ncnc2c1CCN(S(=O)(=O)c1ccccc1)CC2.O=C(O)C(F)(F)F
REPORTED_PROPERTY: Percent Effect
RESULT: 77.11%
//
MOLECULE: CCCN(CC(=O)NC)C(=O)c1ccc(-c2nc(C)cs2)cc1
REPORTED_PROPERTY: Percent Effect
RESULT: 92.57%
//
MOLECULE: CNC(=O)[C@@H](c1ccccc1OC)N1CCC[C@H]1C(=O)NCCN(C)C.Cl.Cl
REPORTED_PROPERTY: Percent Effect
RESULT: -2.091%
//
MOLECULE: Cc1ccccc1-n1cnnc1SCC(=O)NCC1CCCO1 (configuration not stated)
REPORTED_PROPERTY: Percent Effect
RESULT: 6.164%
//
MOLECULE: CN(C)C(Cn1ccnc1-c1nccn1C)c1ccccc1Cl (configuration not stated)
REPORTED_PROPERTY: Percent Effect
RESULT: -33.34%
//
MOLECULE: O=C1[C@H]2CC[C@H](CN(S(=O)(=O)c3ccccc3)C2)N1Cc1cscn1
REPORTED_PROPERTY: Percent Effect
RESULT: 20.83%
//
MOLECULE: CCC(=O)N1CCN(C(=O)NCc2c(C)cc(C)cc2C)CC1
REPORTED_PROPERTY: Percent Effect
RESULT: 2.244%
//
MOLECULE: CC(C)n1c(=O)c2ccccc2n(CCCN(C)C)c1=O.Cl
REPORTED_PROPERTY: Percent Effect
RESULT: 74.16%
//
MOLECULE: CS(=O)(=O)c1cccc(C(=O)NCC2Cc3ccccc3O2)c1 (configuration not stated)
REPORTED_PROPERTY: Percent Effect
RESULT: -50.83%
//
MOLECULE: COCC(NC(=O)NCc1cccc(C#N)c1)c1ccco1 (configuration not stated)
REPORTED_PROPERTY: Percent Effect
RESULT: -16.03%
//
MOLECULE: CCN(C)c1ncnc2c1CCN(C(=O)N(C)C)CC2.O=C(O)C(F)(F)F
REPORTED_PROPERTY: Percent Effect
RESULT: -3.614%
//
MOLECULE: CCN(CC(=O)NC)C(=O)Cc1csc(C(C)C)n1
REPORTED_PROPERTY: Percent Effect
RESULT: -3.04%
//
MOLECULE: CCCc1nn(Cc2csc(C(C)C)n2)c(=O)o1
REPORTED_PROPERTY: Percent Effect
RESULT: -6.237%
//
MOLECULE: CCN(CC(=O)N(C)C)C(=O)c1cc(-c2cccc(Cl)c2)no1
REPORTED_PROPERTY: Percent Effect
RESULT: -0.1751%
//
MOLECULE: Cc1ccc2nc3n(c2c1)[C@@H](CNCc1nccs1)COC3
REPORTED_PROPERTY: Percent Effect
RESULT: -1.407%
//
MOLECULE: CN(C)C(=O)CCCn1ccc(NCc2ccc(C#N)cc2)n1
REPORTED_PROPERTY: Percent Effect
RESULT: -12.19%
//
MOLECULE: CCc1ncnc2c1CCN(S(=O)(=O)c1ccccc1)CC2
REPORTED_PROPERTY: Percent Effect
RESULT: 113.2%
//
MOLECULE: CCS(=O)(=O)N1CCc2ncnc(C)c2CC1
REPORTED_PROPERTY: Percent Effect
RESULT: -1.649%
//
MOLECULE: O=C(NCc1nc2ccccc2[nH]1)c1cnn2c1OCCC2
REPORTED_PROPERTY: Percent Effect
RESULT: 8.573%
//
MOLECULE: COc1ccccc1C(C)NC(=O)N1CCN(Cc2ccc(Br)s2)CC1 (configuration not stated)
REPORTED_PROPERTY: Percent Effect
RESULT: 3.107%
//
MOLECULE: CCCN(CC(=O)N(C)C)C(=O)c1ccc(-c2nc(C)cs2)cc1
REPORTED_PROPERTY: Percent Effect
RESULT: 106.6%
//
MOLECULE: O=C(NCc1nc2ccccc2[nH]1)c1cc2n(n1)CCCO2
REPORTED_PROPERTY: Percent Effect
RESULT: 4.478%
//
MOLECULE: Cc1cnn(CC2CCCN2Cc2cc(=O)n3cccc(C)c3n2)c1 (configuration not stated)
REPORTED_PROPERTY: Percent Effect
RESULT: 6.367%
//
MOLECULE: CCCc1nn(Cc2ccc(Br)s2)c(=O)o1
REPORTED_PROPERTY: Percent Effect
RESULT: 114.1%
//
MOLECULE: COC(=O)NCC(=O)N1CCC(c2nc3cc(F)ccc3[nH]2)CC1
REPORTED_PROPERTY: Percent Effect
RESULT: -27.28%
//
MOLECULE: CCN(C)c1ncnc2c1CCN(C(=O)c1ccccn1)CC2.O=C(O)C(F)(F)F.O=C(O)C(F)(F)F
REPORTED_PROPERTY: Percent Effect
RESULT: -0.1551%
//
MOLECULE: CC(C)N1CCN(CCn2cnc3c(F)cccc3c2=O)CC1
REPORTED_PROPERTY: Percent Effect
RESULT: -1.52%
//
MOLECULE: CN(C)CCN1CCOC2(CCN(c3nccs3)CC2)c2ccccc21
REPORTED_PROPERTY: Percent Effect
RESULT: -12.88%
//
MOLECULE: Cc1ccccc1-n1cnnc1SCC1CCCCO1 (configuration not stated)
REPORTED_PROPERTY: Percent Effect
RESULT: 0.1895%
//
MOLECULE: Cc1ccc(-c2nc(C(=O)N(C)CC(=O)N(C)C)cs2)c(C)c1
REPORTED_PROPERTY: Percent Effect
RESULT: -25.77%
//
MOLECULE: CC/C=C(/C)C(=O)NCc1ccnc(OC2CCOCC2)c1
REPORTED_PROPERTY: Percent Effect
RESULT: -6.645%
//
MOLECULE: CC(C)c1ncc(C(=O)N(C)c2ccc(Br)cn2)s1
REPORTED_PROPERTY: Percent Effect
RESULT: 0.7212%
//
MOLECULE: CN(C)C(=O)c1csc(-c2ccoc2)n1
REPORTED_PROPERTY: Percent Effect
RESULT: -7.541%
//
MOLECULE: CCc1ncnc2c1CCN(C(=O)N1CCCC1)CC2
REPORTED_PROPERTY: Percent Effect
RESULT: 16.14%
//
MOLECULE: Cc1csc(-c2ccc(NC(=O)N3CCOCC3)cc2)n1
REPORTED_PROPERTY: Percent Effect
RESULT: 9.555%
//
MOLECULE: CNC(=O)C(CC(C)C)NC(=O)c1cccc(-c2nc(C)cs2)c1 (configuration not stated)
REPORTED_PROPERTY: Percent Effect
RESULT: 8.267%
//
MOLECULE: CCc1ncnc2c1CCN(C(=O)Cc1ccccn1)CC2
REPORTED_PROPERTY: Percent Effect
RESULT: -1.286%
//
MOLECULE: CCc1nc(Cn2c(=O)n(C)c3ccccc32)no1
REPORTED_PROPERTY: Percent Effect
RESULT: -3.957%
//
MOLECULE: CC(C)C(=O)N1CCN(CCOc2cccc(C#N)c2)CC1
REPORTED_PROPERTY: Percent Effect
RESULT: 22.03%
//
MOLECULE: OCc1c(Cl)ncn1-c1ccccc1
REPORTED_PROPERTY: Percent Effect
RESULT: 94.93%
//
MOLECULE: O=C(c1cccnc1O)N1CCCN(c2cccnn2)CC1
REPORTED_PROPERTY: Percent Effect
RESULT: -5.126%
